experimental.system: Multidrug efflux pump LfrA (Mycobacterium smegmatis (strain ATCC 700084 / mc(2)155)) (UniProt A0R5K5)
Sequence (A0R5K5 whole entry): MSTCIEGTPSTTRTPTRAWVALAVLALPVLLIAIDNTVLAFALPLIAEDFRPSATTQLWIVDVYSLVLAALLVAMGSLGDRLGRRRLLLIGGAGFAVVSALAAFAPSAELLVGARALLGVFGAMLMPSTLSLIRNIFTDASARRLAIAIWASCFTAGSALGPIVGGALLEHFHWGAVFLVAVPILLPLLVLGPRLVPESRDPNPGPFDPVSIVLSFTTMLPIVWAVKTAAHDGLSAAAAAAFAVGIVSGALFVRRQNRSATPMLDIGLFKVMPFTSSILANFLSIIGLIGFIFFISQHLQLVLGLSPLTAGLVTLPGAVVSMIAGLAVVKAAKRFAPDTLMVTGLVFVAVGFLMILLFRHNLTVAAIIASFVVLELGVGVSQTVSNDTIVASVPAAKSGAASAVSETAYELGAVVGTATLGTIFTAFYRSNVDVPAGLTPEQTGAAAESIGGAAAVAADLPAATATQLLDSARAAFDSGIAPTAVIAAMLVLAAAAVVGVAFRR
measurement.protocol: Inhibition of LfrA in Mycobacterium smegmatis MC2 155 ATCC 700084 assessed as decrease in norfloxacin MIC at 25 ug/ml after 72 hrs by MTT assay relative to control
condition.parameters: Mycolicibacterium smegmatis MC2 155
Known fractional inhibitory concentration index (FICI) of a selection of compounds
measurement.kind: fractional inhibitory concentration index (FICI)

Cc1cccn2c(=O)c3cccc(Cl)c3nc12    0.37
Cc1ccn2c(=O)c3cccc(Cl)c3nc2c1    0.37
Cc1ccn2c(=O)c3cc(Br)ccc3nc2c1    0.37
O=c1c2ccccc2nc2ccccn12    0.25
O=c1c2cccc(Cl)c2nc2ccccn12    0.25
Cc1cccn2c(=O)c3cc(Br)ccc3nc12    0.37
O=c1c2cccc(Cl)c2nc2c3ccccc3ccn12    0.37
Cc1cccn2c(=O)c3ccc(Br)cc3nc12    0.37
